# assayProcedure: clinical
# runParameters: male, human, plasma, po, 750 mg, Plasma AUCinf of metformin, median, metformin 750 mg single dose alone, fed, n=24
measure: AUC(0-inf) (ng·h/mL)
Kindly provide the numeric value in ng·h/mL only, without the unit symbol.

input: Tell me the measured AUC(0-inf) of CN(C)C(=N)N=C(N)N , please.
output: 9050

###

# assayProcedure: clinical
# runParameters: male, human, plasma, po, 750 mg, Plasma AUCinf of metformin, min-max, metformin 750 mg single dose alone, fed, n=24
measure: AUC(0-inf)

input: Tell me the measured AUC(0-inf) of CN(C)C(=N)N=C(N)N [Metformin] , please.
output: 6820 to 12500 ng·h/mL
